experimental_details: Plasma vs tumor PK in MDA-MB-231 xenograft mice
Format: in vivo, athymic nude mice
test_context: athymic nude, mouse; Tumor, oral 75 mg/kg
measured_endpoint: MRT last (h)
// note: answer is a bare numeric in h

Entry COc1ccc(/C=C/c2cc(OC)cc(B(O)O)c2)cc1 [VMY-BC-1] has what MRT last?
1.94

###

experimental_details: Plasma vs tumor PK in MDA-MB-231 xenograft mice
Type: in vivo, athymic nude mice
test_context: athymic nude, mouse, tumor and plasma; 75 mg/kg oral; read-out: Cmax in tumors relative to plasma
measured_endpoint: Kp
Write no unit; give the number alone.

Look at this compound and give its reported Kp. COc1ccc(/C=C/c2cc(OC)cc(B(O)O)c2)cc1 [VMY-BC-1]
3
